Test system: Escherichia coli BW25113
Assay: plate-normalized OD600 growth (mean of duplicates) (OD600 (normalized)); higher = more growth (less inhibition)
Conditions: temperature: 15°C; 48 h; 10 µM
In all, about 2,300 compounds were measured (“plate-normalized OD600 growth (mean of duplicates)”: median about 0.29, lowest 2% from about 0.22 on). Many of the other results were omitted from the sample, so the lowest values are more common in it than they were.
OBSERVABLE: plate-normalized OD600 growth
One number for each entry.

Answered examples (5):
Please report the recorded plate-normalized OD600 growth for CCOc1ccc(NC(=O)CSc2nc(C)cc(COC)c2C#N)cc1 .
0.21

Need plate-normalized OD600 growth, item O=C(COc1ccc(C(F)(F)F)cc1[N+](=O)[O-])Nc1cccc(C(F)(F)F)c1
0.264

Field request: plate-normalized OD600 growth | item: Cc1cccc(NC(=O)COc2ccccc2C(=O)NCCNc2ccc([N+](=O)[O-])cc2)c1
0.209

Tell me the measured plate-normalized OD600 growth of CC(C)(C)OC(=O)NC1CCN(C(=O)c2ccc(Cl)cc2Cl)CC1 , please.
0.244

Requested read-out: plate-normalized OD600 growth. Entry: COc1cc(C=NCc2ccco2)ccc1O
0.242

Dear colleague, could you please provide plate-normalized OD600 growth for the compounds listed below?
1. COc1cc(O)ccc1/C=N/NC(=O)c1cccc([N+](=O)[O-])c1
2. Cc1cc(=O)oc2n[nH]c(-c3ccccc3)c12

1. 0.248
2. 0.258
